Provenance of the data: the supplement of paper PMC10567573

B1: ALDH8A1 (parent)
chain: RVAKKLQSGLVWTNCWLIRELNLP

Variants of: B1
test_name: protein stability index of a GFP-peptide fusion (GPS, HEK-293T) (PSI 1-6); higher = more stable;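 further: lentivirally expressed fusions sorted by FACS into six bins by GFP to DsRed ratio, PSI derived from sequencing read proportions per bin multiplied by bin number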
reported_conditions: c terminus: a fixed tail appended
Can you tell me protein stability index for the items I'm about to list?
Answer with the value's number alone.

Data point: T13E ; protein stability index = 1.95

Data point: K5Q ; protein stability index = 1.34

Data point: C15P ; protein stability index = 2.17
